Below, each of the compounds is paired with its reported melting point value.

compound="COc1ccc2nc(Cl)c(C=NNc3nc(-c4cccc5ccccc45)cs3)cc2c1 [4m]" result_type="melting point" value_reported="174 to 179 °C"

# lookup: melting point of COc1ccc2nc(Cl)c(C=NNc3nc(-c4ccc(C)cc4)cs3)cc2c1 [4f] 194 to 196 °C

Cool, now COc1ccc2nc(Cl)c(/C=N/Nc3nc(-c4ccccc4)cs3)cc2c1 [4d] 220 to 222 °C

Cool, now COc1ccc(-c2csc(N/N=C/c3cc4cc(OC)ccc4nc3Cl)n2)cc1 [4g] 176 to 180 °C

###

RESULT TYPE: melting point

# example entries with known answers
molecule_smiles=COc1ccc2nc(Cl)c(/C=N/Nc3nc(-c4cccc([N+](=O)[O-])c4)cs3)cc2c1 value_reported="212 to 214 °C"
molecule_smiles=COc1ccc2nc(Cl)c(C=NNc3nc(-c4ccncc4)cs3)cc2c1 value_reported="250 to 257 °C"
molecule_smiles=COc1ccc2nc(Cl)c(C=NNc3nc(-c4cccc(F)c4)cs3)cc2c1 value_reported="221 to 223 °C"
molecule_smiles=COc1ccc2nc(Cl)c(/C=N/Nc3nc(-c4ccc(F)cc4)cs3)cc2c1 value_reported="193 to 195 °C"

# lookup: melting point of COc1cccc(-c2csc(N/N=C/c3cc4cc(OC)ccc4nc3Cl)n2)c1 217 to 220 °C
